Each recorded value in this set is attributed to patent US20260274861A1.

- testProtocol: Pharmacokinetic evaluation in balb/c nude mice after intragastric administration
- Format: in vivo
- condition: female, mouse, po, i.g., 40.0 mg/kg, plasma, read-out: Plasma concentration Cmax
In this section, each of the compounds is paired with its reported Cmax.
attributeMeasured: Cmax

In [3]: df
Out[3]:
                                   compound     result
0  C[C@@H]1Oc2nc(-c3cc(N)cc(Cl)c3C(F)(F)F)c(F)c3nc(OCC4(CN5CCC(=C(F)F)CC5)CC4)nc(c23)N2C[C@H]3CC[C@H](N3)[C@@H]12  578 ng/mL
1  C[C@@H]1Oc2nc(-c3ccc(F)c4sc(N)c(C#N)c34)c(F)c3nc(OCC4(CN5CCC(=CF)CC5)CC4)nc(c23)N2C[C@H]3CC[C@H](N3)[C@@H]12  699 ng/mL

* * *

CL/F: recorded values
- testProtocol: Pharmacokinetic evaluation in balb/c nude mice after intragastric administration
- Assay type: in vivo
- condition: female, mouse, po, i.g., 40.0 mg/kg, plasma, read-out: Clearance rate CL/F
attributeMeasured: CL/F (L/h/kg)

compound	attributeMeasured	numericResult
C[C@@H]1Oc2nc(-c3ccc(F)c4sc(N)c(C#N)c34)c(F)c3nc(OCC4(CN5CCC(=CF)CC5)CC4)nc(c23)N2C[C@H]3CC[C@H](N3)[C@@H]12 [Example 37]	CL/F	6.78
C[C@@H]1Oc2nc(-c3cc(N)cc(Cl)c3C(F)(F)F)c(F)c3nc(OCC4(CN5CCC(=C(F)F)CC5)CC4)nc(c23)N2C[C@H]3CC[C@H](N3)[C@@H]12 [Example 39]	CL/F	4.42

* * *

- Test system: GP2d cells
- testProtocol: Inhibition of 3D proliferation of GP2d cells (CellTiter-Glo 3D)
- Type: cell-based
- condition: 120 h, 5 days
attributeMeasured: IC50 (pM)

In [3]: df
Out[3]:
                                   compound  attributemeasured  numericresult
0  CCc1c(F)ccc2cc(O)cc(-c3nc4c5c(nc(OCC6(CN7CC/C(=C\F)C7)CC6)nc5c3F)N3C[C@H]5CC[C@H](N5)[C@H]3[C@H](C)O4)c12               IC50            700
1  Cc1cc(N)c(F)c(-c2nc3c4c(nc(OCC5(CN6CCC(=CF)CC6)CC5)nc4c2F)N2C[C@H]4CC[C@H](N4)[C@H]2[C@H](C)O3)c1C(F)(F)F               IC50             70
2  CCc1c(F)ccc2cc(O)cc(-c3nc4c5c(nc(OCC6(CN7CCOCC7)CC6)nc5c3F)N3C[C@H]5CC[C@H](N5)[C@H]3[C@H](C)O4)c12               IC50            900
3  C[C@@H]1Oc2nc(-c3ccc(F)c4sc(N)c(C#N)c34)c(F)c3nc(OCC4(CN5CCC(=C(F)F)CC5)CC4)nc(c23)N2C[C@H]3CC[C@H](N3)[C@@H]12               IC50            400
4  C[C@@H]1Oc2nc(-c3cc(N)cc(Cl)c3C(F)(F)F)c(F)c3nc(OCC4(CN5CCC(=CF)CC5)CC4)nc(c23)N2C[C@H]3CC[C@H](N3)[C@@H]12               IC50             60

* * *

AUC(0-t) for assorted molecules
- testProtocol: Pharmacokinetic evaluation in balb/c nude mice after intragastric administration
- Assay type: in vivo
- condition: female, mouse, po, i.g., 40.0 mg/kg, plasma, read-out: Area under curve AUC0-t
attributeMeasured: AUC(0-t) (ng·h/mL)

                                   compound  numericresult
0  C[C@@H]1Oc2nc(-c3cc(N)cc(Cl)c3C(F)(F)F)c(F)c3nc(OCC4(CN5CCC(=C(F)F)CC5)CC4)nc(c23)N2C[C@H]3CC[C@H](N3)[C@@H]12           7210
1  C[C@@H]1Oc2nc(-c3ccc(F)c4sc(N)c(C#N)c34)c(F)c3nc(OCC4(CN5CCC(=CF)CC5)CC4)nc(c23)N2C[C@H]3CC[C@H](N3)[C@@H]12           5260

* * *

- testProtocol: Pharmacokinetic evaluation in balb/c nude mice after intragastric administration
- Type: in vivo
- condition: female, mouse, po, i.g., 40.0 mg/kg, plasma, read-out: Half-life T½ (converted)
- Procedure: Balb/c nude mice were used as test animals. After intragastric (i.g.) administration of example compounds to balb/c nude mice, the plasma concentrations at different time points were determined by the LC/MS/MS method. The pharmacokinetic behavior of the compounds of the present disclosure in balb/c nude mice was studied, and their pharmacokinetic profiles were evaluated. […]
attributeMeasured: half-life (min)

molecule	attributeMeasured	numericResult
C[C@@H]1Oc2nc(-c3cc(N)cc(Cl)c3C(F)(F)F)c(F)c3nc(OCC4(CN5CCC(=C(F)F)CC5)CC4)nc(c23)N2C[C@H]3CC[C@H](N3)[C@@H]12 [Example 39]	half-life	604
C[C@@H]1Oc2nc(-c3ccc(F)c4sc(N)c(C#N)c34)c(F)c3nc(OCC4(CN5CCC(=CF)CC5)CC4)nc(c23)N2C[C@H]3CC[C@H](N3)[C@@H]12 [Example 37]	half-life	477

* * *

- System: GP2d cells
- testProtocol: Inhibition of 3D proliferation of GP2d cells (CellTiter-Glo 3D)
- Format: cell-based
- condition: 120 h, 5 days
attributeMeasured: IC50 (nM)

compound	attributeMeasured	numericResult
CCc1c(F)ccc2cc(O)cc(-c3nc4c5c(nc(OCC6(CN7CC8CC(=C(F)F)CC8C7)CC6)nc5c3F)N3C[C@H]5CC[C@H](N5)[C@H]3[C@H](C)O4)c12 (stereo partly shown)	IC50	1.6
CCc1c(F)ccc2cc(O)cc(-c3nc4c5c(nc(OCC67CCCN6CC(=C(F)F)C7)nc5c3F)N3C[C@H]5CC[C@H](N5)[C@H]3[C@H](C)O4)c12 (stereo partly shown)	IC50	1.2
Cc1cc(N)c(F)c(-c2nc3c4c(nc(OCC5(CN6CCC(=C(F)F)CC6)CC5)nc4c2F)N2C[C@H]4CC[C@H](N4)[C@H]2[C@H](C)O3)c1C(F)(F)F	IC50	0.6
C=C1CN2CC(=C)CC2(COc2nc3c4c(nc(-c5cc(O)cc6ccc(F)c(CC)c56)c(F)c4n2)O[C@@H](C)[C@@H]2[C@@H]4CC[C@H](CN32)N4)C1	IC50	0.9
